Here the recorded CC50 is given for each entry.
- Test system: HEK-293T
- assay.details: Cytotoxicity against HEK293T cells incubated for 48 hrs by absorbance based assay
- Type: toxicity, cell-based
- experimental.context: human, hek-293t, 48 h
I only need the number, in µM, no unit after it.

# compound.structure, uom, CC50
data = [
    ("CCOP(=O)(COc1ccc(C[C@H](NC(=O)O[C@H]2CO[C@H]3OCC[C@H]32)[C@H](O)CN(C[C@@H](C)CC)S(=O)(=O)c2ccc(OC)cc2)cc1)OCC", "µM", 33),
    ("CCOP(=O)(COc1ccc(C[C@H](NC(=O)O[C@H]2CO[C@H]3OCC[C@H]32)[C@H](O)CN(C[C@@H](C)CC)S(=O)(=O)c2ccc3c(c2)OCO3)cc1)OCC", "µM", 31),
]

// lookup CC50 for `CCOP(=O)(COc1ccc(C[C@H](NC(=O)O[C@H]2CO[C@H]3OCC[C@H]32)[C@H](O)CN(CC(C)C)S(=O)(=O)c2ccc(OC)cc2)cc1)OCC`
50

// query: `CCOP(=O)(COc1ccc(C[C@H](NC(=O)O[C@H]2CO[C@H]3OCC[C@H]32)[C@H](O)CN(CC(CC)CC)S(=O)(=O)c2ccc(OC)cc2)cc1)OCC`
22

// query: `CCOP(=O)(COc1ccc(C[C@H](NC(=O)O[C@H]2CO[C@H]3OCC[C@H]32)[C@H](O)CN(C[C@@H](C)CC)S(=O)(=O)c2ccc3ncsc3c2)cc1)OCC`
23
